- Tested on: C. elegans
- TEST_CONTEXT: Table S2, C. elegans SS assay, 110 μM, 0 h, averages of 4 data points
READOUT_TYPE: Percentage of motility inhibition 0 h (%)
Answer with a number only, understood to be in %.

Some entries whose results are on file:
[
  {
    "COMPOUND": "C=C(C)[C@@H]1CCC2=CCC[C@@H](C)[C@]2(C)C1",
    "READOUT_TYPE": "Percentage of motility inhibition 0 h",
    "NUMERIC_READOUT": 3
  },
  {
    "COMPOUND": "COc1ccc(-c2oc3c(CC=C(C)C)c(O[C@@H]4O[C@H](CO)[C@@H](O)[C@H](O)[C@H]4O)cc(O)c3c(=O)c2O)cc1 [Icariside I]",
    "READOUT_TYPE": "Percentage of motility inhibition 0 h",
    "NUMERIC_READOUT": 0
  },
  {
    "COMPOUND": "COc1ccc(-c2cc(=O)c3c(OC)cc(OC)c(OC)c3o2)cc1OC",
    "READOUT_TYPE": "Percentage of motility inhibition 0 h",
    "NUMERIC_READOUT": 0
  },
  {
    "COMPOUND": "C=CC/C(=N\\OS(=O)(=O)[O-])S[C@@H]1O[C@H](CO)[C@@H](O)[C@H](O)[C@H]1O.O.[K+] [Sinigrin (hydrate)]",
    "READOUT_TYPE": "Percentage of motility inhibition 0 h",
    "NUMERIC_READOUT": 0
  },
  {
    "COMPOUND": "COC(=O)C1=CO[C@@H](O[C@@H]2O[C@H](CO)[C@@H](O)[C@H](O)[C@H]2O)[C@H]2[C@@H]1C(=O)C[C@@H]2C",
    "READOUT_TYPE": "Percentage of motility inhibition 0 h",
    "NUMERIC_READOUT": 60
  }
]

Any idea what its Percentage of motility inhibition 0 h is? The compound is CC(CC(=O)CC(C)[C@H]1CC(=O)C2(C)C3=C(C(=O)C(=O)C12C)C1(C)CCC(=O)C(C)(C)[C@@H]1CC3=O)C(=O)O (stereo partly shown)
36

Dear colleague, I am looking for the recorded Percentage of motility inhibition 0 h of the following compound: "CO[C@@H]1C=C2[C@@H]3CC(C)(C)CC[C@]3(CO)[C@H](O)C[C@@]2(C)[C@]2(C)CC[C@H]3[C@](C)(CO)[C@@H](O[C@@H]4O[C@H](C)[C@H](O)[C@H](O[C@@H]5O[C@H](CO)[C@@H](O)[C@H](O)[C@H]5O)[C@H]4O)CC[C@]3(C)[C@@H]12"
13

Can you share its Percentage of motility inhibition 0 h? I mean this compound: "O=C(O)Cc1c[nH]c2ccccc12"
4

Any idea what Percentage of motility inhibition 0 h was measured for CN[C@@H]1[C@H](O)[C@H](NC)[C@H]2O[C@@]3(O)C(=O)C[C@@H](C)O[C@H]3O[C@@H]2[C@H]1O.Cl.Cl [Spectinomycin (dihydrochloride)] ?
0

Entry CC(=O)NO [Acetohydroxamic acid] has what Percentage of motility inhibition 0 h?
13

---

- System: C. elegans
- MEASUREMENT_DESCRIPTION: microbe, parasite or virus in culture
- TEST_CONTEXT: Caenorhabditis elegans, 0 h, read-out: Percentage of motility inhibition 0 h, Table S2, C. elegans SS assay, 110 μM, 0 h, averages of 4 data points
READOUT_TYPE: inhibition at 110 µM (%)
Write it as a number; the unit % goes unstated.

Would you please look over these solved cases?
[
  {
    "SMILES_REPR": "C=C1C(=O)[C@@]23[C@H](O)C[C@@H]4C(C)(C)CC[C@H](O)[C@@]4(CO)[C@@H]2CC[C@@H]1[C@H]3O",
    "READOUT_TYPE": "inhibition at 110 µM",
    "UNIT_STRING": "%",
    "NUMERIC_READOUT": 0
  },
  {
    "SMILES_REPR": "C/C=C(/C)C(=O)O[C@H]1[C@H](OC(C)=O)[C@]2(CO)[C@H](O)C[C@]3(C)C(=CC[C@@H]4[C@@]5(C)CC[C@H](O[C@@H]6O[C@H](C(=O)O)[C@@H](O[C@@H]7O[C@H](CO)[C@@H](O)[C@H](O)[C@H]7O)[C@H](O)[C@H]6O[C@@H]6O[C@H](CO)[C@@H](O)[C@H](O)[C@H]6O)[C@](C)(CO)[C@@H]5CC[C@]43C)[C@@H]2CC1(C)C",
    "READOUT_TYPE": "inhibition at 110 µM",
    "UNIT_STRING": "%",
    "NUMERIC_READOUT": 0
  },
  {
    "SMILES_REPR": "CN(C)Cc1c[nH]c2ccccc12",
    "READOUT_TYPE": "inhibition at 110 µM",
    "UNIT_STRING": "%",
    "NUMERIC_READOUT": 0
  },
  {
    "SMILES_REPR": "Oc1ccc(Cl)c2cccnc12",
    "READOUT_TYPE": "inhibition at 110 µM",
    "UNIT_STRING": "%",
    "NUMERIC_READOUT": 40
  },
  {
    "SMILES_REPR": "CC[C@@H]1[C@H]2CCCCN3[C@H]2[C@@H](C[C@H]3[C@@H]2C[C@H](C)C(=O)O2)[C@H]2[C@@H]1OC(=O)[C@H]2C",
    "READOUT_TYPE": "inhibition at 110 µM",
    "UNIT_STRING": "%",
    "NUMERIC_READOUT": 0
  },
  {
    "SMILES_REPR": "COc1cccc(N2CCN(C3=Nc4c(F)cccc4[C@H](CC(=O)O)N3c3cc(C(F)(F)F)ccc3OC)CC2)c1",
    "READOUT_TYPE": "inhibition at 110 µM",
    "UNIT_STRING": "%",
    "NUMERIC_READOUT": 24
  }
]

Please look up its inhibition at 110 µM: "CC1=C[C@H]2[C@@]3(O)[C@H](C)[C@@H](O)[C@]4(O)[C@H]([C@@H]3C=C(CO)C[C@]2(O)C1=O)C4(C)C"
0

Given "Cc1cncc(C)n1" , state its recorded inhibition at 110 µM.
0

Fill in: inhibition at 110 µM of "CC1(C)CC[C@]2(CO)CC[C@]3(C)C(=CC[C@@H]4[C@@]5(C)CC[C@H](O)C(C)(C)[C@@H]5CC[C@]43C)[C@@H]2C1" is ___
11

Provenance of the data: paper PMC11855827
